- tested on: T1, Soluble CD28-Ig (extracellular domain of human CD28 fused to the Fc portion of human IgG1) (human, UniProt P10747 19-152, biotin-conjugated (NHS-biotin) in the FACS binding assays)
- T1 construct: extracellular domain; bought from R&D Systems; also called sCD28-Ig; CD28-Ig Fc; not shown: Fc portion of human IgG1
- procedure text: competitive FACS on transfected cells, biotin-sCD28-Ig with FITC-sCTLA-4-Ig; grade 0-2 of CD28/CTLA-4 ratio vs WT hB7-1
property measured: Binding Score

binder: Round 2 CD28F7-2 (ligand) ITPKSVTKRVKETVMLSCDYSTSTEELTSLRIYWQKDSKMVLAILPGKVQVWPEYKNRTITDMNDNPRIVILALRLSDSGTYTCVIQKPVLKGAYKLEHLASVRLMIRADFPVPTINDLGNPSPNIRRLICSTSGGFPEPRLAWMEDGEELNAVNTTVDQDLDTELYSVSSELDFNVTNNHSIVCLIKYGELSVSQIFPWSKPKQEPPIDQLPFWVIIPVSGALVLTAVVLYCLACRHVARWKRTRRNEETVGTERLSPIYLGSAQSSG
property measured: Binding Score
value: 2
